Test system: L1210 leukemia ip in BDF1 mice, survival T/C
experiment_description: NCI In Vivo Anticancer Drug Screen. Data for tumor model L1210 Leukemia (intraperitoneal) in B6D2F1 (BDF1) mice
test_conditions: endpoint: mean survival time; dose: 12.5 mg/kg/injection; schedule: Q04DX003 (ip); vehicle: saline with Tween-80
Toxic doses and inconclusive results are not listed. Cut-off read from the data, not from the text of the source: active = T/C of 150% or more; inactive = T/C below 125%.
// allowed return values: True for active, False for inactive

# input Answer briefly: the call reported for OCC1C2CCC(CC2)C1CO (stereo unspecified) in this assay.
# output False

# input Answer briefly: the call reported for CC1CN1C1=C(Br)C(=O)C(N2CC2C)=C(Br)C1=O (stereo unspecified) in this assay.
# output False

# input Answer briefly: the call reported for Cc1ccc(S(=O)(=O)N/N=C2/CC3CCC(C)(C2)C3)cc1 (stereo unspecified) in this assay.
# output False

# input Answer briefly: the call reported for Cc1ccc(C(=O)Nc2ncn(C3CC(O)C(CO)O3)c(=O)n2)cc1 (stereo unspecified) in this assay.
# output True

# input Answer briefly: the call reported for C/C(=N\NC(N)=S)c1cccs1 in this assay.
# output False

# input Answer briefly: the call reported for CC(=[N-])CC(C)=O.CC(=[N-])CC(C)=O.[Cu+2] in this assay.
# output False

* * *

System: L1210 leukemia ip in BDF1 mice, survival T/C
experiment_description: NCI In Vivo Anticancer Drug Screen. Data for tumor model L1210 Leukemia (intraperitoneal) in B6D2F1 (BDF1) mice
test_conditions: endpoint: mean survival time; dose: 400.0 mg/kg/injection; schedule: Q01DX009 (ip); vehicle: saline with Tween-80; higher = longer survival
Inconclusive results and toxic doses are left out.
measured_quantity: T/C

Entry CCCCCCCCCCCC(=O)NC(=O)N1CCOCC1 under L1210 leukemia ip in BDF1 mice, survival T/C had T/C of 93 % of control

Entry Cc1ccc(NC(=O)OCCSC(=O)COc2ccc(Cl)cc2Cl)cc1 under L1210 leukemia ip in BDF1 mice, survival T/C had T/C of 104 % of control

Entry O=Cc1[nH]c(=S)[nH]c(=O)c1Cc1ccc(Br)cc1 under L1210 leukemia ip in BDF1 mice, survival T/C had T/C of 98 % of control

Entry COc1ccc(-c2c(C)c(C)[nH]c(=O)c2C(=O)O)c(OCc2ccccc2)c1OC under L1210 leukemia ip in BDF1 mice, survival T/C had T/C of 97 % of control

Entry CCOC(=O)C1=C(C)NC(C)=C(C(C)=O)C1c1ccnc2ccccc12 (centres undefined) under L1210 leukemia ip in BDF1 mice, survival T/C had T/C of 100 % of control

Entry NC(=O)c1ccccc1NC(=O)Nc1ccc([N+](=O)[O-])cc1Cl under L1210 leukemia ip in BDF1 mice, survival T/C had T/C of 98 % of control

Entry O=C(CCCCC(=O)N/N=C/c1ccncc1)N/N=C/c1ccncc1 under L1210 leukemia ip in BDF1 mice, survival T/C had T/C of 91 % of control

Entry O=C(Nc1ccccc1)C(Cl)Cl under L1210 leukemia ip in BDF1 mice, survival T/C had T/C of 96 % of control

Entry Cc1ccc(S(=O)(=O)OCC2COC(C(Cl)(Cl)Cl)O2)cc1 (centres undefined) under L1210 leukemia ip in BDF1 mice, survival T/C had T/C of 94 % of control

Entry O=C(NC(=S)Nc1cccc(O)c1)c1ccco1 under L1210 leukemia ip in BDF1 mice, survival T/C had T/C of 95 % of control

Entry O[C@@H]1CCCC[C@@H]1n1cnc2c(=S)nc[nH]c21 under L1210 leukemia ip in BDF1 mice, survival T/C had T/C of 92 % of control

Entry CC1(C)C(=O)C(=O)C2CCCCC21 (centres undefined) under L1210 leukemia ip in BDF1 mice, survival T/C had T/C of 92 % of control

Entry C=CCNC(=S)Nc1ccc(OC(=O)NC2CCCCC2)cc1 under L1210 leukemia ip in BDF1 mice, survival T/C had T/C of 102 % of control

Entry CCOC(=O)C(Br)CCCC(Br)C(=O)OCC (centres undefined) under L1210 leukemia ip in BDF1 mice, survival T/C had T/C of 89 % of control

Entry COCn1cnc([N+](=O)[O-])c1Br under L1210 leukemia ip in BDF1 mice, survival T/C had T/C of 86 % of control

Entry CC(=O)Nc1ccc2c(c1)Cc1cc(NC=O)ccc1-2 under L1210 leukemia ip in BDF1 mice, survival T/C had T/C of 98 % of control

Entry COC1OC2COc3ccccc3OC2C(NC#N)C1O (centres undefined) under L1210 leukemia ip in BDF1 mice, survival T/C had T/C of 89 % of control

Entry CCCCC(=O)NC(=O)c1ccccc1 under L1210 leukemia ip in BDF1 mice, survival T/C had T/C of 93 % of control

Entry N/C(=N\N=C\c1c(F)c(F)c(F)c(F)c1F)N[N+](=O)[O-] under L1210 leukemia ip in BDF1 mice, survival T/C had T/C of 94 % of control

* * *

For each of the molecules below, state its T/C.
System: L1210 leukemia ip in BDF1 mice, survival T/C
experiment_description: NCI In Vivo Anticancer Drug Screen. Data for tumor model L1210 Leukemia (intraperitoneal) in B6D2F1 (BDF1) mice
test_conditions: endpoint: mean survival time; dose: 100.0 mg/kg/injection; schedule: Q04DX003 (ip); vehicle: saline; higher = longer survival
Toxic doses and inconclusive results are not listed.

The recorded T/C for entry C/C=C/c1ccc2ccc[n+](C)c2c1O equals 94 % of control

The recorded T/C for entry O=C(O)Cc1ccc2c(c1)C(=O)C(=O)N2 equals 95 % of control

The recorded T/C for entry CCOC(=O)Cn1c(C)cnc1C equals 101 % of control

The recorded T/C for entry CC(C)(C)NC(=O)NC1CCCCC1 equals 101 % of control

The recorded T/C for entry O=C(C1C2C=CC(CC2)C1C(=O)N1CCOCC1)N1CCOCC1 (stereo not drawn) equals 100 % of control

The recorded T/C for entry Cc1cccc[n+]1Cc1cc(=O)[nH]c(=O)[nH]1 equals 101 % of control

The recorded T/C for entry O=S(=O)(O)SCCNC1CCC(NCCSS(=O)(=O)O)CC1 (stereo not drawn) equals 105 % of control

The recorded T/C for entry O=C(NO)c1ccc(C(=O)NO)c(Br)c1 equals 107 % of control

The recorded T/C for entry COc1cccc(C2CCCCCC2OS(C)(=O)=O)c1OC (stereo not drawn) equals 102 % of control

The recorded T/C for entry CC(C)(C)OB(OC(C)(C)C)OC(C)(C)C equals 98 % of control

The recorded T/C for entry CC(=O)Nc1ccc2c(c1)Cc1cc(NC=O)ccc1-2 equals 97 % of control

The recorded T/C for entry Cc1c(O)c2ccc3ccccc3c2oc1=O equals 97 % of control

The recorded T/C for entry O=S(=O)(C/C(=N\O)c1ccccc1)C/C(=N/O)c1ccccc1 equals 104 % of control

* * *

System: L1210 leukemia ip in BDF1 mice, survival T/C
experiment_description: NCI In Vivo Anticancer Drug Screen. Data for tumor model L1210 Leukemia (intraperitoneal) in B6D2F1 (BDF1) mice
test_conditions: endpoint: mean survival time; dose: 25.0 mg/kg/injection; schedule: Q04DX002 (ip); vehicle: Klucel (hydroxypropylcellulose) (HPC); higher = longer survival
Inconclusive results and toxic doses are left out.
For each of the molecules below, state its T/C.

Entry N#Cc1ccc(OCCCCCOc2ccc(C#N)cc2I)c(I)c1 under L1210 leukemia ip in BDF1 mice, survival T/C had T/C of 100 % of control

Entry COC(=O)N1C=CC2C=CC1C(C#N)(C#N)C2(C#N)C#N (stereo not given) under L1210 leukemia ip in BDF1 mice, survival T/C had T/C of 98 % of control

Entry CC(=O)C12OC(C)(C)OC1CC1C3CCC4=CC(=O)C=CC4(C)C3(F)C(O)CC12C (stereo not given) under L1210 leukemia ip in BDF1 mice, survival T/C had T/C of 107 % of control

Entry CCCCCCCCCCCCCCCCCCNC(=O)c1c(Br)c(Br)cc(Br)c1C(=O)O under L1210 leukemia ip in BDF1 mice, survival T/C had T/C of 104 % of control

Entry CSC(=NCc1ccccc1)NC1CCCCC1 under L1210 leukemia ip in BDF1 mice, survival T/C had T/C of 107 % of control

* * *

Test system: L1210 leukemia ip in BDF1 mice, survival T/C
experiment_description: NCI In Vivo Anticancer Drug Screen. Data for tumor model L1210 Leukemia (intraperitoneal) in B6D2F1 (BDF1) mice
test_conditions: endpoint: mean survival time; dose: 100.0 mg/kg/injection; schedule: Q01DX009 (ip); vehicle: Klucel (hydroxypropylcellulose) (HPC); higher = longer survival
Toxic doses and inconclusive results are not listed.
measured_quantity: T/C

The recorded T/C for entry O=[N+]([O-])c1cc2c3ccccc3ccc2c2ccccc12 equals 96 % of control

The recorded T/C for entry CCOc1ccc(OCC)c(NC(=O)Nc2ccc(F)c([N+](=O)[O-])c2)c1 equals 101 % of control

The recorded T/C for entry COc1cccc(N2C(=O)C3C(C2=O)C2(Cl)C(Cl)=C(Cl)C3(Cl)C2(Cl)Cl)c1 (stereo unspecified) equals 98 % of control

The recorded T/C for entry Cc1ccc(C)c(NC(=O)c2ccccc2N)c1 equals 98 % of control

The recorded T/C for entry COc1ccc(CNC(=O)NCCCl)cc1OC equals 102 % of control

The recorded T/C for entry O=P(OCCCl)(OCCCl)C(c1ccccc1)(c1ccccc1)c1ccccc1 equals 105 % of control
